- System: MS2 coat protein
- MEASUREMENT_PROTOCOL: apparent KD of MS2 coat protein; designed switch direction (-1 OFF switch, 1 ON switch): 1; higher = weaker reporter binding
- STATED_CONDITIONS: input ligand: FMN 200 uM
# cutoff 50 nM applies to apparent KD of MS2 coat protein; >= gives 1, < gives -1

INSERT INTO assay_data (construct_sequence, class) VALUES
  ('GCCAUCGAGUGAGGAUAUGGCACCGUUUCGGUGCCAGAAGGCAUGUCAAUUGACAUGAGGAUCACCCAUGUAUUAUCGAUGGCA [JL Fiskers NG1ss - 33 mod 4] (Eterna round: R96, puzzle: Same State NG 1)', 1),
  ('ACAUGAGAGAUAGGAUAUCUUGUACCUACAUGUGACAUGAGGAUCACCCAUGUGGUAAGUAUGAGGGAGAAGGAUCAGAUAUGU [Equivalence 42 - Jieux - Same State NG 2] (Eterna round: R96, puzzle: Same State NG 2)', -1),
  ('AGCUAUUACGAAGGAUAUAGUAACAUGAGGAUCACCCAUGUUUACAUGAUUAAUUGUGAUCACGUCUAGAAGGUUGUACUAACA [SameState NG2 #34] (Eterna round: R96, puzzle: Same State NG 2)', -1),
  ('GCUCGACGUUCGGCCUACAUGAGGAUCACCCAUGUGACUGGGCAGGAUAUCUAAAUGCAGAAUGUAGAGAAGGGCCCGUCGAGC [SameState NG3 #51] (Eterna round: R96, puzzle: Same State NG 3)', 1);

Continue with the next sequence.
Problem: // inclusive: apparent KD of MS2 coat protein at least 50 nM? input: ACCCAAAAUACAUGGGAACAAGCUUUUUAACAUGAGGAUCACCCAUGUACUCGUCUUAUAAGCAGUCGAAAGACUGC [hsa-mir-208a sensor: 113] (Eterna round: R96, puzzle: Sensor for hsa-mir-208a)
Result: 1

---

Each entry below lists one item and its recorded apparent KD of MS2 coat protein value.
- Test system: MS2 coat protein
- MEASUREMENT_PROTOCOL: apparent KD of MS2 coat protein; designed switch direction (-1 OFF switch, 1 ON switch): 1; higher = weaker reporter binding
- STATED_CONDITIONS: Eterna round: R95; input ligand: none
Write the answer as a number in µM, unit excluded.

INSERT INTO measurements (construct_sequence, value_units, reported) VALUES
  ('UCUAGACAUGAGGAUCACCCAUGUCGAUAUGACACAGGAUAUCGGUACUCAUAGAGUACGCGAGAAGGGUGACUUC [Same State 1 - Mod of Vinnie Gere v.3] (puzzle: Same State 1)', 'µM', 0.166),
  ('GGAGGGAGGGCGCAGGAUAUCGAUAAUGACACAUGAGGAUCACCCAUGUUUGGUAUUAGAAGGAACGAGAAGGGUGAGAGGAGGG [red_knee_arm] (puzzle: Same State 2)', 'µM', 0.0532);

Measured apparent KD of MS2 coat protein, AUAAAACAUGAGGAUCACCCAUGUCUCUAAAGUCGAGGAUAUGGGCAAAUAAUAUAAGAACCAGAAGGCGAAUAAU [SS1 Teenbexe 3] (puzzle: Same State 1) : 0.53

---

- Tested on: MS2 coat protein
- MEASUREMENT_PROTOCOL: apparent KD of MS2 coat protein; designed switch direction (-1 OFF switch, 1 ON switch): -1; higher = weaker reporter binding
- STATED_CONDITIONS: input ligand: FMN 200 uM
TEST_READOUT: apparent KD of MS2 coat protein (nM)
Write the answer as a number in nM, unit excluded.

INSERT INTO results (construct_sequence, system, reported) VALUES
  ('GGUGGACAUGAGGAUCACCCAUGUGAGGAUAUCGGCUGGUACGUGUUGGCUGGCAUCUCGAGAAGGCACAUCGU [Exclusion 1 V64] (Eterna round: R96, puzzle: Exclusion 1)', 'MS2 coat protein', 181);

Measured apparent KD of MS2 coat protein, UACUGACAUGAGGAUCACCCAUGUGAGGAUAUUCUCCUGCCAAAUUAAUGGUGGGUGUGAAGAAGGCACAAGGA [EX1 C.12] (Eterna round: R97, puzzle: Exclusion 1) : 98

Measured apparent KD of MS2 coat protein, AGUAGUUCAGGAUAUGAUGUUGAGUACAUGAGGAUCACCCAUGUAGGUCCUGGAUUUGCAUCAGAAGGGAAUAACU [JR_Ex5_Sub084] (Eterna round: R97, puzzle: Exclusion 5) : 59

---

Each entry below lists one item and its recorded apparent KD of MS2 coat protein value.
- System: MS2 coat protein
- MEASUREMENT_PROTOCOL: apparent KD of MS2 coat protein; designed switch direction (-1 OFF switch, 1 ON switch): -1; higher = weaker reporter binding
- STATED_CONDITIONS: input ligand: microRNA oligo, concentration not stated
Write the answer as a number in nM, unit excluded.

See these solved cases before continuing.
INSERT INTO results (construct_sequence, test_readout, value_units, reported) VALUES
  ('GCACCAUGGCUUACUAGCCGUUAAACAUGAGGAUCACCCAUGUAGGAUAUGGUCUGGAUUACAGGCCAGAAGGGCGUAAGGUGC [JL Eli 026 mod] (Eterna round: R96, puzzle: Exclusion NG 3)', 'apparent KD of MS2 coat protein', 'nM', 13.1),
  ('AUCAGCUCGUCAGGAUAUGCACAUGAGGAUCACCCAUGUAAGAUCAAGCUGCUUCGGCAGCAAGUGCAGAAGGGACGAGCUGAU [ENG2/9-B2] (Eterna round: R96, puzzle: Exclusion NG 2)', 'apparent KD of MS2 coat protein', 'nM', 177),
  ('UUCCGGCAUGUAGGAUAUGGAUCCGAUUAGGAUUUAGAAGGACAUGAGGAUCACCCAUGUGCAUUUAAUUAGUCAUUACCGUUU [EXclNG1-LROPPY06] (Eterna round: R96, puzzle: Exclusion NG 1)', 'apparent KD of MS2 coat protein', 'nM', 34.4);

Read the next record carefully.
Measured apparent KD of MS2 coat protein, GAACUGAGGCAAAGCUUUAGUCGUACAUGAGGAUCACCCAUGUAGGAUAUGGUAGGCAAAGCAUACCAGAAGGACAGAGUGAUC [Mat - Exclusion NG 3 - Mod of JL - D61] (Eterna round: R96, puzzle: Exclusion NG 3) : 313

---

- Tested on: MS2 coat protein
- MEASUREMENT_PROTOCOL: apparent KD of MS2 coat protein, switch OFF state (with FMN for OFF switches, without FMN for ON switches); designed switch direction (-1 OFF switch, 1 ON switch): -1; higher = weaker reporter binding
- STATED_CONDITIONS: FMN input: 0 or 200 uM; Eterna round: R93 (includes R88 designs)
Each entry below lists one item and its recorded apparent KD of MS2 coat protein value.
Write the answer as a number in nM, unit excluded.

INSERT INTO assay_data (construct_sequence, system, value_units, reported) VALUES
  ('AGUGAGUGAGGAUAUCACUGAAGAAUAAAAGAAAUAACGAGUGAGAAGGCACAUGAGGAUCACCCAUGUACACA [May 63]', 'MS2 coat protein', 'nM', 18.3);

Measured apparent KD of MS2 coat protein, AAACUACUAGGAUAUGCAGAAAGGGUGUAUCCUUAAACUCCACAUGAGGAUCACCCAUGUAGAAGGAGUAAUCG [Dilaquis] : 46.4

Measured apparent KD of MS2 coat protein, CCGAGACAUGAGGAUCACCCAUGUGAGGAUAUAGGUGUAUGCAAAAAAAAGUUAAAAACUAGAAGGCACAGAGG [JR_Exc001_Sub307] : 30.9

Measured apparent KD of MS2 coat protein, AACAGGUCAGGAUAUGUGGAAAAAAUAAAAAAAAUAAAAACACAGAAGGGACAUGAGGAUCACCCAUGUUAACA [May 25] : 38.8

Measured apparent KD of MS2 coat protein, AGAAACGAAGGAUAUACAUGAGGAUCACCCAUGUAAAGAAAGAGGAGAGCCACAAGAAGUAGAAGGUCGAAGAA [JR_Exc003_Sub007] : 50.7

Measured apparent KD of MS2 coat protein, AAAAGCACAGGAUAUACGGGAUUAUGACGAAAGUCAUAAAAACAUGAGGAUCACCCAUGUAGAAGGGUGCAAAA [Mod of Meechl's... 64% 2] : 248

Measured apparent KD of MS2 coat protein, AGCUAGUCAGGAUAUACGAACAGCUCAAAAGAGCUGAAGGGACAUGAGGAUCACCCAUGUAGAAGGGACUAGCA [Mat - Exclusion 2 - JL mod - D27] : 89.6

Measured apparent KD of MS2 coat protein, AAAAAUGCAGGAUAUACGUACAUGUCAAAAGACGUGAAGGGACAUGAGGAUCACCCAUGUAGAAGGGUAAAGAA [JL Neck Breaker 15] : 59.8

Measured apparent KD of MS2 coat protein, AAGAACGCAGGAUAUACAUGAAAGAAAGAAAAGAAAAGAAAACAUGAGGAUCACCCAUGUAGAAGGGCGAAGAA [EteRNA is fun!] : 39.6
